Data origin: the supplement of paper PMC10065799

target: c-Src SH2; assay: SH2 binding enrichment of the phosphorylated peptide, bacterial display (enrichment ratio); higher = better substrate or ligand; peptides without Tyr show the background
SH2 binding enrichment reference
Answer as a number with no unit attached.

biopolymer_sequence: CRPPFYHRNCM [HGD_Y334_F329C_YF]
target_of_assay: c-Src SH2;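 further: peptide library displayed on the E. coli surface as eCPX fusions, selected cells deep-sequenced, score is each peptide's frequency after selection divided by its frequency in the input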
measured_number: 1.36

**Query** Recorded SH2 binding enrichment of DQIDTYELSGG [DNM1_Y354] , please.
**Result** 0.607

**Query** Any idea what SH2 binding enrichment was measured for TSIGNYYKPWF [DHCR24_Y299_N294T] ?
**Result** 1.27

* * *

Readings of phosphorylation enrichment for the listed sequences
biological target: Hck (UniProt P08631); assay: phosphorylation enrichment, bacterial display (enrichment ratio); higher = better substrate or ligand; peptides without Tyr show the background
Sequence (P08631 whole entry, looked up): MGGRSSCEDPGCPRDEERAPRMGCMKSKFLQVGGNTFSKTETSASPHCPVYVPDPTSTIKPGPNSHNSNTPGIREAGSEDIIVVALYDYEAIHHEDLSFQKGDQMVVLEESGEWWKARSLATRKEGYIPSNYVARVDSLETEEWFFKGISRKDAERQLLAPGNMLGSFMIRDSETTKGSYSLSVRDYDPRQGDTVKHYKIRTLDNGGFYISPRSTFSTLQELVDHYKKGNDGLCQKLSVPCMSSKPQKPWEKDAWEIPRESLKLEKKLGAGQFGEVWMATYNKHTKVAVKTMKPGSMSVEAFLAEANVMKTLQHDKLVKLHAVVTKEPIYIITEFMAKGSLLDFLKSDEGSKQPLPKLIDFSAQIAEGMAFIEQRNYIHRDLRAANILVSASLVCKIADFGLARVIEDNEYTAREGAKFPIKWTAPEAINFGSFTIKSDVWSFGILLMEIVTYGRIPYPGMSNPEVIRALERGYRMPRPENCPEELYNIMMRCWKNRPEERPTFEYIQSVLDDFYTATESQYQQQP

biopolymer_sequence: NKYVAYIESQG [KDM4B_Y34]
target_of_assay: Hck (UniProt P08631)
phosphorylation enrichment: 0.413

biopolymer_sequence: VISNAYVDLAP [HSD17B4_Y602]
target_of_assay: Hck (UniProt P08631)
phosphorylation enrichment: 0.471

biopolymer_sequence: GFSRHYEDGFP [CTNND1_Y217_YF]
target_of_assay: Hck (UniProt P08631)
phosphorylation enrichment: 0.435

**Query** Fill in the blank: the reported phosphorylation enrichment of FLGEEYVKAVG [TF_Y674_YF] is ____.
**Result** 0.405

**Query** // query phosphorylation enrichment value for entry DIDKIYIRTGI [PIK3CA_Y355_V356I]
**Result** 0.481

**Query** Query: phosphorylation enrichment; subject: FETVKYFNNER [ABCB7_Y345_YF]
**Result** 0.381

**Query** Please report the recorded phosphorylation enrichment for YSIDYYRVGGH [NTRK2_Y707_T704I] .
**Result** 1.78

**Query** Reported phosphorylation enrichment for GLRYGYGVLGG [KRTAP20-2_Y15] : what is it?
**Result** 0.443

**Query** Which phosphorylation enrichment value is on record for FARNSYVAGQY [G6PD_Y107] ?
**Result** 0.385

**Query** Form field: reported phosphorylation enrichment of GHNDVYISKHV [GRIN2A_Y1423_E1426K]
**Result** 0.412

* * *

molecular target: Hck (UniProt P08631); experiment: phosphorylation enrichment, bacterial display (enrichment ratio); higher = better substrate or ligand; peptides without Tyr show the background
Give Satisfied when the value for phosphorylation enrichment is at least 0.6. Give Not satisfied when it is less.

biopolymer_sequence: LDYNEYFRGLN [HPRT1_Y198_D201G]
assigned_category: Satisfied
--
biopolymer_sequence: HAVFVYDICHV [TWNK_Y508_YF]
assigned_category: Satisfied
--
biopolymer_sequence: QEGPEYWDRNT [HLA-B_Y83]
assigned_category: Satisfied
--
biopolymer_sequence: AARVSYRLASG [DCHS1_Y1582]
assigned_category: Not satisfied
--
biopolymer_sequence: RNYGTYTAGLS [RHBDD1_Y264_D262G]
assigned_category: Satisfied

**Query** Has EFKDAYKFAAD [BRDT_Y335_YF] a recorded phosphorylation enrichment greater than or equal to 0.6?
**Result** Not satisfied

**Query** Evaluate GLGGVYGGASG [KRT8_Y54_G53V] : phosphorylation enrichment at minimum 0.6?
**Result** Satisfied

**Query** Does phosphorylation enrichment meet or surpass 0.6 for NHFKIYNLCAE [PTEN_Y68_YF] ?
**Result** Satisfied

**Query** Is phosphorylation enrichment at least 0.6? Consider LVSCTYQLARG [FGFR2_Y608]
**Result** Not satisfied
